# Test target: Mannose-6-phosphate isomerase (Homo sapiens)
# Assay remarks: MPI inhibition at elevated mannose 6-phosphate – biochemical, fluorescence intensity, high mannose 6-phosphate, primary screen (AID 1220)
# Condition: recombinant PMI enzyme, coupled fluorescence intensity; at 20 µM; active compounds read high
Screen size: about 190,000 compounds; about 1,300 (0.68%) were called active. Shown is part of a subset that was picked to be rich in actives.
Entries and their inhibition
Parameter: inhibition (%)

Compound: CC(Cl)c1cc(-c2ncc(C(F)(F)F)cc2Cl)no1 (stereo unspecified)
Value measured: -4.3

Compound: CCCCOC(=O)c1cc(=O)[nH]c2ccccc12
Value measured: 6.8

Compound: CCOc1ccccc1NC(=O)CCN(c1ccc(C)cc1)S(=O)(=O)c1ccccc1
Value measured: 5.3

Compound: NNC(=O)COc1ccccc1[N+](=O)[O-]
Value measured: 4.8

Compound: CC1(C(=O)NC2CCCCCCC2)CCC(=O)N1CCN1CCOCC1 (stereo unspecified)
Value measured: -8.6

Compound: O=Cc1ccc(-n2cc(C=O)c3ccccc32)cc1
Value measured: -5.3

====

# Test target: Mannose-6-phosphate isomerase (Homo sapiens)
# Assay remarks: MPI inhibition at elevated mannose 6-phosphate – biochemical, fluorescence intensity, high mannose 6-phosphate, primary screen (AID 1220)
# Condition: recombinant PMI enzyme, coupled fluorescence intensity; at 20 µM
Out of some 190,000 compounds screened, about 1,300 (0.68%) were called active. Rule as the data show it: active = inhibition above about 50%; inactive = the rest. This excerpt belongs to a sample that is enriched for actives.
Outcomes: active, inactive

Smiles record: O=C(Cc1ccccc1)N/N=C/c1ccc(-c2ccc([N+](=O)[O-])cc2)o1
Class label: inactive
//
Smiles record: Cn1c(SCC(=O)Nc2cccc(Br)c2)nnc1-c1cc2ccccc2o1
Class label: inactive
//
Smiles record: O=[N+]([O-])c1ccc(-c2ccc(C=Nc3cccc4ccccc34)o2)cc1
Class label: active
//
Smiles record: CCC1(CC)C(=O)N=C2c3ccccc3C(=O)N21
Class label: inactive
//
Smiles record: CN(C)CCCN(Cc1cc2cc3c(cc2[nH]c1=O)OCO3)C(=S)NCc1ccco1
Class label: inactive

====

List of inhibition values.
# Test target: Mannose-6-phosphate isomerase (Homo sapiens) (UniProt P34949)
# Sequence (P34949 whole entry, looked up): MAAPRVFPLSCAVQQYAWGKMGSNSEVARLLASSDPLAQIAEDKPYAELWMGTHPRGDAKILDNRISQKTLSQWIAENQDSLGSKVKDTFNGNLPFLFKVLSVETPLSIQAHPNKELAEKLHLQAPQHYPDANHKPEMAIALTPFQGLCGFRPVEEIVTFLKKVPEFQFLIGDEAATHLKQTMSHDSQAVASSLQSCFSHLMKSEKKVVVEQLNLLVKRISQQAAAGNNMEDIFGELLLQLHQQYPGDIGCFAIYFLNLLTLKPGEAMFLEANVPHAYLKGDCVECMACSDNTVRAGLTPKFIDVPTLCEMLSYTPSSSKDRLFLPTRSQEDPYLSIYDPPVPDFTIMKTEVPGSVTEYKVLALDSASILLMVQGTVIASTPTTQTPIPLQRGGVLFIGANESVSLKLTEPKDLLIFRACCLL
# Assay remarks: MPI inhibition at elevated mannose 6-phosphate – biochemical, fluorescence intensity, high mannose 6-phosphate, primary screen (AID 1220)
# Condition: recombinant PMI enzyme, coupled fluorescence intensity; at 20 µM; active compounds read high
Out of some 190,000 compounds screened, about 1,300 (0.68%) were called active. The full list was thinned out, with actives kept by preference.

Compound: Cc1noc(C)c1COC(=O)COc1ccc(C#N)cc1
Test target: Mannose-6-phosphate isomerase (Homo sapiens) (UniProt P34949)
inhibition (%): -4.4

Compound: COc1cccc(N=Cc2c[nH][nH]c2=O)c1
Test target: Mannose-6-phosphate isomerase (Homo sapiens) (UniProt P34949)
inhibition (%): 16.7

Compound: COc1ccc(C(CNC(=O)Cc2ccccc2F)N2CCCCC2)cc1 (configuration not stated)
Test target: Mannose-6-phosphate isomerase (Homo sapiens) (UniProt P34949)
inhibition (%): -1.6

Compound: CC1(C)CC(=O)C(C=Nc2ccc3[nH]ncc3c2)=C(O)C1
Test target: Mannose-6-phosphate isomerase (Homo sapiens) (UniProt P34949)
inhibition (%): 38.6

Compound: CCN1CCN(C(c2cccs2)C(C)NC(=O)NC2CCCCC2)CC1 (configuration not stated)
Test target: Mannose-6-phosphate isomerase (Homo sapiens) (UniProt P34949)
inhibition (%): 6

Compound: C=CCSc1nnc(NC(=O)c2cn(CC)c3nc(C)ccc3c2=O)s1
Test target: Mannose-6-phosphate isomerase (Homo sapiens) (UniProt P34949)
inhibition (%): -1.9

Compound: COc1ccccc1OCc1ccc(C(=O)OCC2CCCO2)o1 (configuration not stated)
Test target: Mannose-6-phosphate isomerase (Homo sapiens) (UniProt P34949)
inhibition (%): -2

Compound: Oc1ccc(Br)cc1C=Nc1ccc2[nH]ncc2c1
Test target: Mannose-6-phosphate isomerase (Homo sapiens) (UniProt P34949)
inhibition (%): 55.4

Compound: Cc1ccc(S(=O)(=O)N2CCN(S(=O)(=O)N3CCCCC3)CC2)cc1
Test target: Mannose-6-phosphate isomerase (Homo sapiens) (UniProt P34949)
inhibition (%): 10.1

Compound: Cc1ccc(NC(=O)CSc2nc(N)c(-c3ccccc3)c(=O)[nH]2)cc1Cl
Test target: Mannose-6-phosphate isomerase (Homo sapiens) (UniProt P34949)
inhibition (%): -0.7

Compound: COc1ccc(C=Nc2ccc3[nH]ncc3c2)c(O)c1
Test target: Mannose-6-phosphate isomerase (Homo sapiens) (UniProt P34949)
inhibition (%): 59.8

Compound: COc1cccc(N=Cc2ccc(O)cc2O)c1
Test target: Mannose-6-phosphate isomerase (Homo sapiens) (UniProt P34949)
inhibition (%): 52.5

====

# Test target: Mannose-6-phosphate isomerase (Homo sapiens)
# Assay remarks: MPI inhibition at elevated mannose 6-phosphate – biochemical, fluorescence intensity, high mannose 6-phosphate, primary screen (AID 1220)
# Condition: recombinant PMI enzyme, coupled fluorescence intensity; at 20 µM
Hit rate of the full screen: of about 190,000 compounds, about 1,300 (0.68%) were called active. No stated cut-off is given here; in the data, active means inhibition above about 50%; inactive means the rest. The list comes from a sample in which actives are over-represented; it also holds close analogues and randomly drawn compounds.
Classes used: active, inactive

Compound: O=C(Nc1ccccc1)C1=C[C@@H](c2ccccc2)C[C@@H](OCc2ccc(CO)cc2)O1
Class label: inactive
--
Compound: Cc1cc(C)nc(NC(=O)c2csnn2)c1
Class label: inactive
--
Compound: CCOc1ccc(NC(=O)c2ccc(NC(=S)NC3CC3)cc2)cc1
Class label: inactive
--
Compound: COc1cc(N=c2ssnc2Cl)cc(OC)c1OC
Class label: inactive
--
Compound: COCc1cc(C)nc(N/N=C/c2ccc(-c3ccc(C(=O)O)c(Cl)c3)o2)c1C#N
Class label: inactive
--
Compound: O=C(Nc1ccccc1)C1=C[C@H](c2ccc3c(c2)OCO3)C[C@H](OCCCCO)O1
Class label: inactive
--
Compound: O=C(NCc1ccccc1)C1=C[C@@H](c2ccc(Br)cc2)C[C@@H](OCc2ccc(CO)cc2)O1
Class label: active
--
Compound: CCOc1ccc(NC(=O)c2ccc(NC(=S)NC3CCCCC3)cc2)cc1
Class label: active
--
Compound: CSc1ccccc1NC(=O)CO/N=C(\C)c1cc2ccccc2o1
Class label: inactive
--
Compound: C#Cc1ccc([C@H]2C=C(C(=O)O)O[C@@H](OCc3ccc(CO)cc3)C2)cc1
Class label: inactive
--
Compound: CN(C)S(=O)(=O)c1ccc(NC(=O)N2CCOCC2)cc1
Class label: inactive
--
Compound: CCN1C(c2ccccc2)=C(c2ccccc2)S/C1=C/C=C1\SC(=S)N(C)C1=O
Class label: active
--
Compound: O=C(Nc1ccccc1)C1=C[C@@H](c2ccc(Br)cc2)C[C@@H](OCCCCO)O1
Class label: inactive
--
Compound: O=C(CCc1nnc(CCCc2ccccc2)o1)NCCc1ccccc1
Class label: inactive
--
Compound: CCCCCn1c(CN2CC(C)OC(C)C2)nc2c1c(=O)n(C)c(=O)n2C (centres undefined)
Class label: inactive
--
Compound: COCc1cc(C)nc(N/N=C/c2ccc(-c3cc(C(=O)O)ccc3Cl)o2)c1C#N
Class label: inactive
--
Compound: Cc1ccc(N=c2ssnc2Cl)cc1
Class label: inactive
--
Compound: C#Cc1ccc([C@@H]2C=C(C(=O)NCc3ccccc3)O[C@H](OCc3ccc(CO)cc3)C2)cc1
Class label: active
--
Compound: CCN1C(=O)/C(=C/C=C2/Sc3ccc4ccccc4c3N2CCO)SC1=S
Class label: inactive
--
Compound: CN(C)c1ccc(NC(=O)N2CCOCC2)cc1
Class label: active
--
Compound: Clc1nssc1=Nc1ccccc1
Class label: inactive
--
Compound: COc1ccc(Nc2nc(N)nc(CSc3nncn3C)n2)cc1
Class label: inactive
--
Compound: Cc1onc(-c2c(Cl)cccc2Cl)c1C(=O)NCCCN1CCOCC1
Class label: inactive
--
Compound: CCOC(=O)c1ccc(NC(=S)NC2CCCC2)cc1
Class label: inactive
--
Compound: C#Cc1ccc([C@@H]2C=C(C(=O)O)O[C@H](OCc3ccc(CO)cc3)C2)cc1
Class label: inactive
--
Compound: COCc1cc(C)nc(N/N=C/c2ccc(-c3ccc(Cl)cc3[N+](=O)[O-])o2)c1C#N
Class label: active
--
Compound: Nc1ccccc1N=c1ssnc1Cl
Class label: inactive
--
Compound: CC(=O)c1cccc(NC(=O)CN2C(=S)NC(C)(C)CC2C)c1 (centres undefined)
Class label: inactive
--
Compound: O=C1CCCC(O)=C1C1C2=C(CCCC2=O)Oc2ccccc21 (centres undefined)
Class label: inactive
--
Compound: O=C1CCC(C(=O)OC(C(=O)c2c[nH]c3ccccc23)c2ccccc2)=NN1 (centres undefined)
Class label: inactive
--
Compound: Cc1cc(Cl)ccc1N=c1ssnc1Cl
Class label: inactive
--
Compound: COC(=O)c1ccc(C)c(N(CCO)CCO)c1
Class label: inactive
--
Compound: CCOC(=O)c1nn(-c2ccccc2F)c2nc(-c3ccco3)c(C#N)c(=O)n12
Class label: inactive
--
Compound: Cc1cnc(C(=O)OCC(=O)N2CCN(C(=O)c3ccco3)CC2)cn1
Class label: inactive
--
Compound: CCc1ccc(NC(=O)CO/N=C(\C)c2cc3ccccc3o2)cc1
Class label: inactive
--
Compound: COc1ccccc1OCC(=O)Nc1ccccn1
Class label: inactive
--
Compound: Clc1cc(Cl)cc(C2=NCCC(c3ccccc3)O2)c1 (centres undefined)
Class label: inactive
--
Compound: C=CCN1C(=NC(=O)CCC)SC2CS(=O)(=O)CC21 (centres undefined)
Class label: inactive
--
Compound: CC(=O)N1CCC2(CC1)CC(=O)c1cc(OCC(=O)N3CCOCC3)ccc1O2
Class label: inactive
--
Compound: O=C(Nc1ccccc1)C1=C[C@H](c2ccc(Br)cc2)C[C@H](OCc2ccc(CO)cc2)O1
Class label: inactive
--
Compound: Cc1ccc2nsnc2c1S(=O)(=O)N(Cc1cc2cccc(C)c2[nH]c1=O)CC1CCCO1 (centres undefined)
Class label: inactive
--
Compound: CCOCCCNC(=O)c1cn(CC(C)C)c(=O)c2cc(OC)c(OC)cc12
Class label: inactive
--
Compound: O=C(NCc1ccccc1)C1=C[C@H](c2ccc3c(c2)OCO3)C[C@H](OCCCCO)O1
Class label: active
--
Compound: O=[N+]([O-])c1ccc(Oc2cccc(F)c2)c2ccncc12
Class label: inactive
